molecular target: L. monocytogenes AgrC (Listeria monocytogenes (EGD-e)); assay: cell-based or functional assay
Bridges are numbered along the chain shown (N, C = ends). Where no end group is shown, it is not given here.
QUANTITY KIND: Max Inhibition (agr-GFP reporter, wild-type strain) (%)
Numeric answer only, unit % assumed.

q: I would be grateful if you could share the reported Max Inhibition (agr-GFP reporter, wild-type strain) for INCDFLL (bridge 3-C; also: thiolactone: Cys3 side chain to C-terminal carboxyl) [Sa AIP-III] .
a: 0.64

q: Moving on to the next binder: NASKYNPCSNYL (not fully specified; thiolactone ring Cys8-Leu12 (Cys side chain to C-terminal carboxyl)) [Se AIP-II]
a: 0

q: Moving on to the next binder: DSVCASYF (not fully specified; thiolactone ring Cys4-Phe8 (Cys side chain to C-terminal carboxyl)) [Se AIP-I]
a: 0

Source of measurements: patent US12116424
